# Target system: Sphingosine 1-phosphate receptor 4 (Homo sapiens)
# Test description: S1P4 receptor antagonists, primary screen, cell-based (AID 1510);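 also: 0% = wells stimulated with agonist and 100% = vehicle wells without agonist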
# Details: S1P4-expressing cells, antagonist mode, reporter read-out; at 4.98 µM
Hit rate of the full screen: of about 220,000 compounds, about 570 (0.26%) were called active. Rule as the data show it: active = inhibition above about 29%; inactive = the rest. The entries come from a sample that favours actives as a whole.
Response enum: active, inactive

[
  {
    "Molecule": "COc1ccc(/C=N/NC(=O)Nc2ccc3nsnc3c2)c(OC)c1",
    "Answer label": "inactive"
  },
  {
    "Molecule": "O=C(Nc1ccccc1)OCc1cc(-c2ccc(Cl)cc2)on1",
    "Answer label": "inactive"
  },
  {
    "Molecule": "O=C(Nc1ccccc1Cl)/C(Cl)=C(\\Cl)S(=O)c1ccccc1 (stereo not drawn)",
    "Answer label": "active"
  }
]

Qu. Identify the outcome logged in this assay for the molecule shown: Cc1nc2cc3c(cc2s1)OCO3
Ans. inactive

Qu. Identify the outcome logged in this assay for the molecule shown: CCOC(=O)c1sc(NC(=O)CSc2nc(O)c(Cc3ccccc3)c(=O)[nH]2)nc1C
Ans. inactive

Qu. Identify the outcome logged in this assay for the molecule shown: C[C@@H](NC(=O)OC(C)(C)C)c1nnc(S(=O)(=O)Cc2ccccc2)o1
Ans. active

Qu. Identify the outcome logged in this assay for the molecule shown: CC(C(=O)NC1CCCC1)N(c1ccc(Oc2ccccc2)cc1)S(C)(=O)=O (stereo not drawn)
Ans. inactive

Qu. Identify the outcome logged in this assay for the molecule shown: O=C(Nc1nnc(C2COc3ccccc3O2)o1)c1ccc(F)cc1 (stereo not drawn)
Ans. inactive

Qu. Identify the outcome logged in this assay for the molecule shown: COC(=O)C1=C(Nc2ccc(C)cc2)C=C(C)C(C(=O)OC)C1c1ccc(F)cc1 (stereo not drawn)
Ans. inactive

Qu. Identify the outcome logged in this assay for the molecule shown: FC(F)Oc1ccccc1NC(=S)Nc1cccc(Cl)c1Cl
Ans. inactive

Qu. Identify the outcome logged in this assay for the molecule shown: COc1ccc2c(c1OC)C(=O)OC2Nc1nc(-c2ccccc2)cs1 (stereo not drawn)
Ans. inactive

====

# Target system: Sphingosine 1-phosphate receptor 4 (Homo sapiens) (UniProt O95977)
# Sequence (O95977 whole entry, looked up): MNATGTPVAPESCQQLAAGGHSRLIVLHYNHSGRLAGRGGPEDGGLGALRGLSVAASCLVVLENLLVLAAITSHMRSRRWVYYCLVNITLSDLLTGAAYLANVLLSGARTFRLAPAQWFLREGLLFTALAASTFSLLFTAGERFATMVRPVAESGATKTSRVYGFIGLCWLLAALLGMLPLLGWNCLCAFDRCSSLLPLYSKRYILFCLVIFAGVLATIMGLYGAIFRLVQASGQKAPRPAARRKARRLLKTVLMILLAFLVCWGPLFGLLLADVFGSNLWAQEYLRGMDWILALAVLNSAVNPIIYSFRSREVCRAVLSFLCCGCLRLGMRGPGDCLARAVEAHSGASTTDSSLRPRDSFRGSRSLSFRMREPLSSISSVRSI
# Test description: S1P4 receptor antagonists, primary screen, cell-based (AID 1510);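 also: 0% = wells stimulated with agonist and 100% = vehicle wells without agonist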
# Details: S1P4-expressing cells, antagonist mode, reporter read-out; at 4.98 µM; hits give high values
In all, about 220,000 compounds went through this assay and about 570 (0.26%) were called active. This is one part of a sample in which actives are shown more often than they occur.
Endpoint: inhibition

Below are worked cases with known answers.
[
  {
    "Compound": "S=C(NCC1CCCO1)N1CCN(c2ccc(Cl)c(Cl)c2)CC1 (stereo not drawn)",
    "inhibition": "4.85% (inactive)"
  },
  {
    "Compound": "N#Cc1c(-c2cccs2)nc(SCC(=O)c2ccc(Br)cc2)[nH]c1=O",
    "inhibition": "15.8% (inactive)"
  },
  {
    "Compound": "Cc1nc2nc(SCC(=O)c3ccccc3)[nH]c2cc1Br",
    "inhibition": "6.48% (inactive)"
  },
  {
    "Compound": "Cn1c(=O)c2c(nc(N/N=C/c3cccs3)n2Cc2ccc(Br)cc2)n(C)c1=O",
    "inhibition": "-19.2% (inactive)"
  }
]

Qu. Given the entry Cc1cc(C)n(-c2nnc(N3CCN(c4ccccc4)CC3)nn2)n1 , report its measured inhibition.
Ans. 9.76% (inactive)

Qu. Given the entry CCn1cc(-c2cc(C(=O)O)on2)c(C)n1 , report its measured inhibition.
Ans. -15.2% (inactive)

====

# Target system: Sphingosine 1-phosphate receptor 4 (Homo sapiens) (UniProt O95977)
# Test description: S1P4 receptor antagonists, primary screen, cell-based (AID 1510);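 also: 0% = wells stimulated with agonist and 100% = vehicle wells without agonist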
# Details: S1P4-expressing cells, antagonist mode, reporter read-out; at 4.98 µM; hits give high values
The whole screen tested about 220,000 compounds, of which about 570 (0.26%) were called active. Shown is part of a subset that was picked to be rich in actives.
Catalogue of inhibition values
Report only the number, with the unit % understood.

Below are worked cases with known answers.
[
  {
    "Molecule": "NC(=O)COC(=O)c1cc(S(=O)(=O)N2CCN(c3ccccc3)CC2)ccc1Cl",
    "Endpoint": "inhibition",
    "Result units": "%",
    "Recorded result": -4.86
  },
  {
    "Molecule": "Cc1cccc(C(=O)Nc2ccccc2C(=O)NCc2cccnc2)c1",
    "Endpoint": "inhibition",
    "Result units": "%",
    "Recorded result": -7.4
  },
  {
    "Molecule": "COC(=O)CC1=NN(c2nc(C)cc(C)n2)C(=O)C1",
    "Endpoint": "inhibition",
    "Result units": "%",
    "Recorded result": -14.2
  },
  {
    "Molecule": "COC(=O)c1ccccc1NC(=O)C1CCN(S(=O)(=O)c2cc(OC)ccc2OC)CC1",
    "Endpoint": "inhibition",
    "Result units": "%",
    "Recorded result": -24.9
  },
  {
    "Molecule": "C/C(=N\\Nc1ccc([N+](=O)[O-])cc1)c1ccc(-n2nncc2C(C)(C)C)cc1",
    "Endpoint": "inhibition",
    "Result units": "%",
    "Recorded result": -11.5
  }
]

Qu. Given the entry COc1ccc(Cl)cc1CSc1ncn[nH]1 , report its measured inhibition.
Ans. -3.23

Qu. Given the entry Cc1ccc(COc2ccc(/C=N/NC(=O)CN3CCCCC3)cc2)cc1 , report its measured inhibition.
Ans. -8.97

Qu. Given the entry O=C(/C=C/Sc1ncn[nH]1)c1ccc(Cl)cc1 , report its measured inhibition.
Ans. 47.2

Qu. Given the entry CC(C)C(C)(C#N)NC(=O)CSc1nncn1-c1ccccc1 (centres undefined) , report its measured inhibition.
Ans. -9.99

====

# Target system: Sphingosine 1-phosphate receptor 4 (Homo sapiens)
# Test description: S1P4 receptor antagonists, primary screen, cell-based (AID 1510);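 also: 0% = wells stimulated with agonist and 100% = vehicle wells without agonist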
# Details: S1P4-expressing cells, antagonist mode, reporter read-out; at 4.98 µM; hits give high values
In all, about 220,000 compounds went through this assay and about 570 (0.26%) were called active. This excerpt belongs to a sample that is enriched for actives.
Endpoint: inhibition (%)
Report only the number, with the unit % understood.

[
  {
    "Molecule": "CC(=O)c1cc(C#N)c(N2CC(C)OC(C)C2)nc1C (configuration not stated)",
    "inhibition (%)": -33.6
  },
  {
    "Molecule": "Cc1csc(CN(C)C(=O)CC2C(=O)NCCN2CC(C)(C)C)n1 (configuration not stated)",
    "inhibition (%)": 2.01
  }
]

Qu. State its inhibition on Sphingosine 1-phosphate receptor 4 (Homo sapiens): Cc1cc(C)cc(OCC(=O)O/N=C(\N)Cc2ccc([N+](=O)[O-])cc2)c1
Ans. -5.5

Qu. State its inhibition on Sphingosine 1-phosphate receptor 4 (Homo sapiens): C/C(=N\NC(=O)c1nc(C)cc(C)n1)c1ccccc1
Ans. 4.33

Qu. State its inhibition on Sphingosine 1-phosphate receptor 4 (Homo sapiens): C[C@H](NC(=O)OC(C)(C)C)c1nnc(SCC(N)=O)o1
Ans. -7.8

Qu. State its inhibition on Sphingosine 1-phosphate receptor 4 (Homo sapiens): O=C(NCCOc1ccccc1Cl)C(=O)Nc1ccccc1
Ans. -2.25

Qu. State its inhibition on Sphingosine 1-phosphate receptor 4 (Homo sapiens): CCOC(=O)/C=C/C(=O)OCC(=O)NC(c1ccccc1)c1ccccc1
Ans. 36.3

Qu. State its inhibition on Sphingosine 1-phosphate receptor 4 (Homo sapiens): Cc1cc(C)cc(Oc2nc3c(C)cccn3c(=O)c2/C=C(\C#N)C(=O)NC2CCS(=O)(=O)C2)c1 (configuration not stated)
Ans. -10.8

Qu. State its inhibition on Sphingosine 1-phosphate receptor 4 (Homo sapiens): COc1ccc(CCCc2nnc(SCc3nc4ccccc4c(=O)[nH]3)n2C)cc1
Ans. 3.12

Qu. State its inhibition on Sphingosine 1-phosphate receptor 4 (Homo sapiens): O=C(Nc1ccccc1Cl)c1ccc2nsnc2c1
Ans. -7.15

Qu. State its inhibition on Sphingosine 1-phosphate receptor 4 (Homo sapiens): CCc1nnc(NC(=O)CCN(c2ccc(C)cc2)S(=O)(=O)c2ccccc2)s1
Ans. -0.25

Qu. State its inhibition on Sphingosine 1-phosphate receptor 4 (Homo sapiens): O=C(NNC(=S)NC(=O)c1cn(-c2ccccc2)nc1-c1ccccc1)c1ccncc1
Ans. 13.1

====

# Target system: Sphingosine 1-phosphate receptor 4 (Homo sapiens) (UniProt O95977)
# Test description: S1P4 receptor antagonists, primary screen, cell-based (AID 1510);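 also: 0% = wells stimulated with agonist and 100% = vehicle wells without agonist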
# Details: S1P4-expressing cells, antagonist mode, reporter read-out; at 4.98 µM; hits give high values
The whole screen tested about 220,000 compounds, of which about 570 (0.26%) were called active. The sample as a whole holds a higher share of actives than the screen did.
Catalogue of inhibition values
Report only the number, with the unit % understood.

Qu. Given the entry Cn1c(CCC(=O)OCC(=O)NCc2ccccc2Cl)nc(=O)c2ccccc21 , report its measured inhibition.
Ans. -5.53

Qu. Given the entry Cc1nc2ccccc2n1CC(=O)N/N=C/c1cccs1 , report its measured inhibition.
Ans. -34.3

Qu. Given the entry O=C(CCN1C(=O)C2C3C=CC(C3)C2C1=O)Oc1ccc2ccccc2c1 (configuration not stated) , report its measured inhibition.
Ans. 0.5

Qu. Given the entry O=C(Nc1ccc(F)cc1)N1CCN(c2ccc(F)cc2)CC1 , report its measured inhibition.
Ans. -44

Qu. Given the entry COCCCN(C(=S)Nc1c(C)cc(C)cc1C)C(C)c1ccncc1 (configuration not stated) , report its measured inhibition.
Ans. -9.1

Qu. Given the entry CC(C)(C)C(=O)NCCCNc1ccc([N+](=O)[O-])cc1 , report its measured inhibition.
Ans. 4.36

Qu. Given the entry CN(C)c1ccc(C(=S)N2CCN(C(=S)Nc3ccc(Cl)cc3)CC2)cc1 , report its measured inhibition.
Ans. -3.9

Qu. Given the entry CC(C)(C)NC(=O)C(=O)NCc1ccncc1 , report its measured inhibition.
Ans. -14.6

Qu. Given the entry CC(=O)Oc1c(C(=O)c2nnc(C)o2)c(=O)n(Cc2ccccc2)c2ccccc12 , report its measured inhibition.
Ans. -3.21

Qu. Given the entry COc1ccc(C(=O)NCc2nnc(SCCOc3ccccc3)n2C)cc1 , report its measured inhibition.
Ans. -1.19

Qu. Given the entry COc1ccc(CS(=O)/C(Cl)=C(/Cl)C(=O)Nc2ccc(OC)nc2)cc1 (configuration not stated) , report its measured inhibition.
Ans. 95.9
